Reference source: patent US20160237160A1

Molecular target: TPP-1988 (hTNFRSF12Aaa28-80-M50A-hIgG1-Fc) (human)
Experiment: ELISA, TWEAKR-Fc coated 62 ng/ml, biotin-IgG titrated; + means IC50 1 to 150 pM;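 also: biotinylated IgG binding to immobilized TWEAKR-Fc muteins, detected with Streptavidin-HRP and Amplex Red, IC50 derived from fitted dose-response curves of twofold serial dilutions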
readout: binding result

Below are worked cases with known answers.
136.1(TPP-2194) (antibody, mouse IgG2a, kappa, V domains shown, Murine IgG2a; variable domains from WO2009/020933 with constant region added) VH: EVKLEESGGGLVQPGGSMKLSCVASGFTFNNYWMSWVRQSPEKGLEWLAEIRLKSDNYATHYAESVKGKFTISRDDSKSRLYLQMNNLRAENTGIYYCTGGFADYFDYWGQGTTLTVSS VL: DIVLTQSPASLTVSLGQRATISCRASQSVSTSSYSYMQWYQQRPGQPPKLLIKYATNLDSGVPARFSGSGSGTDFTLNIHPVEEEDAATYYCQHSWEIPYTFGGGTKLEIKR :: binds
TPP-2090 (antibody, human IgG1, kappa, V domains shown, Human IgG1) VH: EVQLLESGGGLVQPGGSLRLSCAASGFTFSPYPMIWVRQAPGKGLEWVSYISPSGGSTHYADSVKGRFTISRDNSKNTLYLQMNSLRAEDTAVYYCARGGDTYFDYFDYWGQGTLVTVSS VL: DIQMTQSPSSLSASVGDRVTITCRASQSISGYLNWYQQKPGKAPKLLIYQASSLQSGVPSRFSGSGSGTDFTLTISSLQPEDFATYYCQQSYTSPFITFGQGTKVEIKR :: binds
18.3.3(TPP-2193) (antibody, mouse IgG2a, kappa, V domains shown, Murine IgG2a; variable domains from WO2009/020933 with constant region added) VH: EVKLGESGGGLVQPGGSMKLSCVASGFPFTKYWMNWVRQSPEKGLEWVAEIRLKSDNYATHYAESAKGRFTISRDDSRSSVYLQMNNLRAEDTAIYYCSPTYADTMDYWGQGTSVTVSS VL: DIVLTQSPASLAVSLGQRATISCKASQSVSTSTYSYMQWYQQRPGQSPKLLIKYASKLDSGVPARFSGSGSGTDFTLNIHPVEEEDTATYYCQHSWELPYTFGGGTRLEIKR :: binds
PDL-192(TPP-1104) (antibody, human IgG1, kappa, V domains shown, Human IgG1; variable domains from WO2009/020933 with constant region added) VH: QVELVESGGGLVQPGGSLRLSCAASGFTFSSYWMSWVRQAPGKGLEWVAEIRLKSDNYATHYAESVKGRFTISRDDSKNSLYLQMNSLRAEDTAVYYCTGYYADAMDYWGQGTLVTVSS VL: DIQMTQSPSSLSASVGDRVTITCRASQSVSTSSYSYMHWYQQKPGKAPKLLIKYASNLESGVPSRFSGSGSGTDFTLTISSLQPEDFATYYCQHSWEIPYTFGGGTKVEIKR :: binds

// query For the binder shown here, P4A8(TPP-1324) (antibody, human IgG1, kappa, V domains shown, Human IgG1; variable domains from WO2009/140177 with constant region added) VH: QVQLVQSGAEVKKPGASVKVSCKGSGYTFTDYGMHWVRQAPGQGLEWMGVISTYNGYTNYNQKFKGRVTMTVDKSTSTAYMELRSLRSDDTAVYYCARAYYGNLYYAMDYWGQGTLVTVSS VL: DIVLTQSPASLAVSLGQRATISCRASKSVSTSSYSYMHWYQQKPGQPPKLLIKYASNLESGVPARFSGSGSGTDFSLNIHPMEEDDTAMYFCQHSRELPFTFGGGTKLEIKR , give the reported binding result.
// result binds

// query For the binder shown here, P3G5(TPP-2195) (antibody, mouse IgG2a, kappa, V domains shown, Murine IgG2a; variable domains from WO2009/140177 with constant region added) VH: QVQLQQSGPEVVRPGVSVKISCKGSGYTFTDYGIHWVKQSHAKSLEWIGVISTYNGYTNYNQKFKGKATMTVDKSSSTAYMELARLTSEDSAIYYCARAYYGNLYYAMDYWGQGTSVTVSS VL: DIVLTQSPASLAVSLGQRATISCRANKSVSTSSYSYMHWYQQKPGQPPKLLIKYASNLESGVPARFSGSGSGTDFILNIHPVEEEDAATYYCQHSRELPFTFGSGTKLEIKR , give the reported binding result.
// result binds
